# measured-on: catalytic domain of human MMP-9 (cdMMP-9) (human) (UniProt P14780)
# assay-procedure: inhibition of cdMMP-9 proteolytic activity, FRET peptide substrate
assay-endpoint: pIC50
Please express pIC50 as -log10 of the molar concentration.

Guide cases for pIC50, answers given:
binder	reading
anti-MMP9 IgG H3 (antibody, V domains shown) VH: EVQLVESGGGLVQPGGSLRLSCAASGFNIYSSSMHWVRQAPGKGLEWVAYIYSSYGYTYYADSVKGRFTISADTSKNTAYLQMNSLRAEDTAVYYCARRFEPGLLKRNKRWISYTLCEAGYGMDYWGQGTLVTVSS VL: DIQMTQSPSSLSASVGDRVTITCRASQSVSSAVAWYQQKPGKAPKLLIYSASSLYSGVPSRFSGSRSGTDFTLTISSLQPEDFATYYCQQASHLITFGQGTKVEIKR	7.04
anti-MMP9 IgG L13 (antibody, V domains shown) VH: EVQLVESGGGLVQPGGSLRLSCAASGFNISSSYIHWVRQAPGKGLEWVASISSSSGYTSYADSVKGRFTISADTSKNTAYLQMNSLRAEDTAVYYCARKYMVFGTRMGWVEHTDFAGQGYYAMDYWGQGTLVTVSS VL: DIQMTQSPSSLSASVGDRVTITCRASQSVSSAVAWYQQKPGKAPKLLIYSASSLYSGVPSRFSGSRSGTDFTLTISSLQPEDFATYYCQQYAALITFGQGTKVEIKR	6.70
anti-MMP9 Fab H25 (Fab, V domains shown) VH: EVQLVESGGGLVQPGGSLRLSCAASGFNIYSSSMHWVRQAPGKGLEWVASIYSYYGYTYYADSVKGRFTISADTSKNTAYLQMNSLRAEDTAVYYCARCKLYTSYMIPVGSDSVNRCMSSYGMDYWGQGTLVTVSS VL: DIQMTQSPSSLSASVGDRVTITCRASQSVSSAVAWYQQKPGKAPKLLIYSASSLYSGVPSRFSGSRSGTDFTLTISSLQPEDFATYYCQQGGGASLITFGQGTKVEIKR	6.28

Consider now this further binder.
Supply reported pIC50 belonging to this binder: anti-MMP9 Fab L13 (Fab, V domains shown) VH: EVQLVESGGGLVQPGGSLRLSCAASGFNISSSYIHWVRQAPGKGLEWVASISSSSGYTSYADSVKGRFTISADTSKNTAYLQMNSLRAEDTAVYYCARKYMVFGTRMGWVEHTDFAGQGYYAMDYWGQGTLVTVSS VL: DIQMTQSPSSLSASVGDRVTITCRASQSVSSAVAWYQQKPGKAPKLLIYSASSLYSGVPSRFSGSRSGTDFTLTISSLQPEDFATYYCQQYAALITFGQGTKVEIKR
6.59
